experimental.system: 5-hydroxytryptamine receptor 1D (Homo sapiens)
Sequence (P28221 whole entry): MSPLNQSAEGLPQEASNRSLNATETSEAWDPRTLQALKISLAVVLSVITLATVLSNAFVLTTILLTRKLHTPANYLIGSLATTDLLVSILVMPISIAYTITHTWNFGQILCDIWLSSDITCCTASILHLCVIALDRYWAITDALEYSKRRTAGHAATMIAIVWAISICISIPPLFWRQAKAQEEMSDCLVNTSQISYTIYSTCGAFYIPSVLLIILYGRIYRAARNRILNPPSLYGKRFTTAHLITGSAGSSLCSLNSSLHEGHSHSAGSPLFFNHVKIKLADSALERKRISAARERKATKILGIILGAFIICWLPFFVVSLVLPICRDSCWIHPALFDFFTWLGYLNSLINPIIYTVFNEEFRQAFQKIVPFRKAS
Where a name gives a salt, the structure may show the parent alone.
# note: exactly 1000 nM is not below, so it is no; use yes for Ki strictly under it

Regarding `COc1cc(-n2cnc3cc(-c4ccc(Cl)cc4)sc3c2=O)ccc1OCCN1CCCC1` , kindly confirm whether its Ki is beneath 1000 nM.
no

Answer whether the compound `CN1CCC(C(=O)c2cccc(NC(=O)c3c(F)cc(F)cc3F)n2)CC1` has Ki strictly less than 1000 nM
yes

Is Ki of `CS(=O)(=O)NC[C@H]1CC[C@H](Nc2nc3c(s2)CCSc2ccccc2-3)CC1` strictly below 1000 nM?
no

# check: Ki < 1000 nM for `CCCCCCCCCCCCCCCCOC[C@H](COP(=O)([O-])OCC[N+](C)(C)C)OC(C)=O`
no

Does CCc1nn(CCCN2CCN(c3cccc(Cl)c3)CC2)c(=O)n1CCOc1ccccc1 [NEFAZODONE HYDROCHLORIDE] have Ki strictly under 1000 nM?
yes

Quick check: does Cc1ccc2c(c1)c1c(n2CCc2ccc(C)nc2)CCN(C)C1 [LATREPIRDINE] have Ki under 1000 nM?
yes

Please let me know if N#Cc1ccc2[nH]cc(CCCCN3CCN(c4ccc5oc(C(N)=O)cc5c4)CC3)c2c1 [VILAZODONE HYDROCHLORIDE] shows Ki below 1000 nM.
yes

Check if Ki falls below 1000 nM for `O=C(O)c1cc(-c2ccc(C3CCNCC3)cc2)c2ccc(-c3ccc(C(F)(F)F)cc3)cc2c1` .
no

Would you kindly verify if Ki of `Cc1nn(C)c(C)c1-c1cccc2c1CC[C@H](N(C)C)C2` is strictly less than 1000 nM?
yes

Would you kindly verify if Ki of `Cc1cc(C)cc(-c2cnc3cc(Cl)c(-c4cccc(O)c4)cc3c2OCCCN)c1` is strictly less than 1000 nM?
yes

Report whether reported Ki is lower than 1000 nM (strictly) for `CC(C)[C@H](CO)Nc1nc(Nc2cccc(Cl)c2)c2ncn(C(C)C)c2n1`
no

====

Kindly supply the reported Ki values for the records listed here.
Where a name gives a salt, the structure may show the parent alone.
Provide the measurement as a number trailed by its unit.

GET /values?readout=Ki&system=Mu-type opioid receptor (Homo sapiens, UniProt P35372)&item= C[C@@H](NCCCc1cccc(C(F)(F)F)c1)c1cccc2ccccc12 [CINACALCET HYDROCHLORIDE]
1300 nM

# returns recorded Ki (system: Mu-type opioid receptor (Homo sapiens, UniProt P35372)) for CCCCCNC(=N)N/N=C/c1c[nH]c2ccc(OC)cc12 [TEGASEROD MALEATE]
# Sequence (P35372 whole entry): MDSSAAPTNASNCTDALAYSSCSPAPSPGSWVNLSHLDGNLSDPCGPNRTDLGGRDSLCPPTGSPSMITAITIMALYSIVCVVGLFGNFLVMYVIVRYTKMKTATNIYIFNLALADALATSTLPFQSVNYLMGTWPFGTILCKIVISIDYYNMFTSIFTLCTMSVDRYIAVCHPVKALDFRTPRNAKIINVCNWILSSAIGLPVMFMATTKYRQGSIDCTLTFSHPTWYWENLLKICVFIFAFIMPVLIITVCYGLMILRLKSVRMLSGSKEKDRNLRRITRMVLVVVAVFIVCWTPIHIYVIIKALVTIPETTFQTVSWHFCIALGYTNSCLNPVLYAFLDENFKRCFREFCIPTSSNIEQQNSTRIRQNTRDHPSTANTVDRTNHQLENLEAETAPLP
2850 nM

Value wanted: Ki (Mu-type opioid receptor (Homo sapiens, UniProt P35372)) of entry `Cc1c(P(=S)(c2ccccc2)c2ccccc2)n2ccccc2[n+]1C/C=C/c1ccccc1`
102 nM

====

experimental.system: Sigma intracellular receptor 2 (Homo sapiens, UniProt Q5BJF2)
Sequence (Q5BJF2 whole entry): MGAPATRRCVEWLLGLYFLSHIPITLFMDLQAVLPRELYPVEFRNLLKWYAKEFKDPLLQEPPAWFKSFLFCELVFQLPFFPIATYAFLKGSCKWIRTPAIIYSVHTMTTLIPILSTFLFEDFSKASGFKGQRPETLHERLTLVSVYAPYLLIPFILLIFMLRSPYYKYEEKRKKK
test.name: PDSP Secondary Binding target: TMEM97 - Compounds are tested at 10 uM concentration, plate are incubated at room temperature in the dark for 90 minutes. Reaction are stopped by vacuum filtration onto 0.3% polyethyleneimine soaked filter mats using Filtermate harvester. Scintillation cocktail is then melted onto microwave-dried filters on a hot plate and the radio activity is counted in Microbia counter.
Counter-ions that a name gives are not always drawn.
measure.name: Ki (nM)
Entry rule: numbers only, all in nM.

Find the recorded Ki belonging to `O=C(O)c1cc(-c2ccc(C3CCNCC3)cc2)c2ccc(-c3ccc(C(F)(F)F)cc3)cc2c1` and report it.
1060

# query: Ki of entry `CC1CCN(CC[C@H]2CCCN2S(=O)(=O)c2cccc(O)c2)CC1`
10.2

Quick one: Ki for `Cc1ccccc1N1CCN(S(=O)(=O)C[C@]23CC[C@H](C[C@@H]2NC(=O)[C@@H](N)CCS(C)(=O)=O)C3(C)C)CC1` ?
309

For O=c1ccc2ccc(OCCCCN3CCN(c4cccc5sccc45)CC3)cc2[nH]1 [BREXPIPRAZOLE] , what is its reported Ki?
63

Which Ki value is on record for CN1C[C@H](C(=O)N[C@]2(C)O[C@@]3(O)[C@@H]4CCCN4C(=O)[C@H](Cc4ccccc4)N3C2=O)C[C@@H]2c3cccc4[nH]cc(c34)C[C@H]21 [DIHYDROERGOTAMINE MESYLATE] ?
2840

Which measured Ki value corresponds to `Cc1csc2c(N[C@@H](C)CN3CCN(S(=O)(=O)c4ccc(Cl)c(Cl)c4)CC3)ncnc12` ?
2000

Data request, read-out Ki, for `OC1(c2ccc(Cl)cc2)CCN(Cc2c[nH]c3ccccc23)CC1`
269

Returns the measured Ki for the input compound. Input: `CCCCCCCCCCCCCCCCOC[C@H](COP(=O)([O-])OCC[N+](C)(C)C)OC(C)=O`
1820
